Molecular target: P2X7 receptor (Homo sapiens, UniProt Q99572)
Construct: host or cells: THP-1 cells differentiated with LPS and IFN-γ
Sequence (Q99572 whole entry): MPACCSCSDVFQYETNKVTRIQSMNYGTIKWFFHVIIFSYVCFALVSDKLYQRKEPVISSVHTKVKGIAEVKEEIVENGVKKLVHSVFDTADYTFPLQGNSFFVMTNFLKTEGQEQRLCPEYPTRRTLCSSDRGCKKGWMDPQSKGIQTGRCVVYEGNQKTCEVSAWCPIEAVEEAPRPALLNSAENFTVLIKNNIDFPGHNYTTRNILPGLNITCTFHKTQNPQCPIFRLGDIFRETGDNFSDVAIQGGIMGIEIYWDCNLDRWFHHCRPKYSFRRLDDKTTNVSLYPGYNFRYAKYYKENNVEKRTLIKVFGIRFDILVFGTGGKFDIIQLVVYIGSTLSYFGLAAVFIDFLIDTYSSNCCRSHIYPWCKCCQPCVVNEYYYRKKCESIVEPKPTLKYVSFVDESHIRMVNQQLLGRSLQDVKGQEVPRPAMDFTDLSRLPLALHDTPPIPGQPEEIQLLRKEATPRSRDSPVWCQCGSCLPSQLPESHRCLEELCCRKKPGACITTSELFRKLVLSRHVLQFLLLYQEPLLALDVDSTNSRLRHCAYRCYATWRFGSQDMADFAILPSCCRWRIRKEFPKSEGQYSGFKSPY
Assay: Alternate method for IL-1β release assay (differentiated THP-1 cells, BzATP-stimulated, ELISA)
Assay type: cell-based
Conditions: P2X7; 0.3 μM compound (symbols * to ****); read-out: IL-1β % inhib @ 0.3 μM

# molecule, inhibition at 0.3 µM
rows = [
    ("O=C(CN1CCC(N2CCOCC2)CC1)N1CCc2c(ncnc2NCC2C3CC4CC(C3)CC2C4)C1 (centres unmarked)", "25 to 50%"),
    ("O=C(CN1CCN(c2ncccn2)CC1)N1CCc2c(ncnc2NCC2C3CC4CC(C3)CC2C4)C1 (centres unmarked)", "0 to 25%"),
    ("Brc1ccc(CN2CCc3c(ncnc3NCC34CC5CC(CC(C5)C3)C4)C2)cn1", "0 to 25%"),
    ("c1cc(CN2CCc3c(ncnc3NCC34CC5CC(CC(C5)C3)C4)C2)ccn1", "> 75%"),
    ("CN(CC(=O)N1CCc2c(ncnc2NCC2C3CC4CC(C3)CC2C4)C1)Cc1ccncc1 (centres unmarked)", "25 to 50%"),
    ("COc1cccc(CN2CCc3c(ncnc3NCC34CC5CC(CC(C5)C3)C4)C2)c1OC", "> 75%"),
    ("c1nc2c(c(NCC34CC5CC(CC(C5)C3)C4)n1)CCN(Cc1ccc3c(c1)OCCO3)C2", "0 to 25%"),
    ("O=C(CN1CCC(F)(F)CC1)N1CCc2c(ncnc2NCC2C3CC4CC(C3)CC2C4)C1 (centres unmarked)", "0 to 25%"),
]

----------
Below, each of the compounds is paired with its reported inhibition at 0.3 µM value.
Target: P2X7 receptor (Homo sapiens, UniProt Q99572)
Construct: host or cells: THP-1 cells differentiated with LPS and IFN-γ
Experiment: Alternate method for IL-1β release assay (differentiated THP-1 cells, BzATP-stimulated, ELISA)
Format: cell-based
Settings: P2X7; 0.3 μM compound (symbols * to ****); read-out: IL-1β % inhib @ 0.3 μM
resultType: inhibition at 0.3 µM

# compound, recordedValue
measured = [
    ("O=C(CN1CCN(Cc2ccccc2)CC1)N1CCc2c(ncnc2NCC2C3CC4CC(C3)CC2C4)C1 (stereo not shown)", "0 to 25%"),
    ("C[C@@H](c1ccccc1)N(C)CC(=O)N1CCc2c(ncnc2NCC2C3CC4CC(C3)CC2C4)C1 (stereo partly shown)", "> 75%"),
    ("Fc1ccc(CN2CCc3c(ncnc3NCC34CC5CC(CC(C5)C3)C4)C2)cc1", "> 75%"),
    ("CC(C)N1CCN(CC(=O)N2CCc3c(ncnc3NCC3C4CC5CC(C4)CC3C5)C2)CC1 (stereo not shown)", "0 to 25%"),
    ("Fc1cc(CN2CCc3c(ncnc3NCC34CC5CC(CC(C5)C3)C4)C2)ccc1Cl", "> 75%"),
    ("Clc1ccc(CN2CCc3c(ncnc3NCC34CC5CC(CC(C5)C3)C4)C2)cc1Cl", "0 to 25%"),
    ("CCCCN(C)CC(=O)N1CCc2c(ncnc2NCC2C3CC4CC(C3)CC2C4)C1 (stereo not shown)", "50 to 75%"),
    ("Clc1cccc(CN2CCc3c(ncnc3NCC34CC5CC(CC(C5)C3)C4)C2)c1", "0 to 25%"),
    ("CN(CC(=O)N1CCc2c(ncnc2NCC2C3CC4CC(C3)CC2C4)C1)Cc1cccc(Cl)c1 (stereo not shown)", "25 to 50%"),
    ("CN(CC(=O)N1CCc2c(ncnc2NCC2C3CC4CC(C3)CC2C4)C1)Cc1cccnc1 (stereo not shown)", "25 to 50%"),
]
